# Tested on: E. faecalis ATCC 29212
# Method Summary: Broth microdilution MIC, ATCC strains
# Assay type: cell-based
# Condition Info: Enterococcus faecalis, ATCC29212, E. faecalis, ATCC number not given; read-out: MIC (growth inhibition, microdilution method)
Measured MIC values are reported for all entries that follow.

Illustrative cases are given below, each with its answer.
| Compound Structure | Value Reported |
| --- | --- |
| Cn1nnnc1-c1cc(-c2ccc(F)cc2)sc1-c1ccc(F)cc1 | > 16 µg/mL |
| COC(=O)c1sc(-c2ccc(F)cc2)cc1-c1nnn(C)n1 | > 8 µg/mL |

Attention now shifts to the item below.
Input line: Answer with reported MIC of Cn1nnnc1-c1cc(-c2ccc(F)cc2)sc1C(=O)O
Output line: > 8 µg/mL

###

Reported MIC by item:
# Test system: B. cepacia ATCC 25416
# Method Summary: Broth microdilution MIC, ATCC strains
# Assay type: cell-based
# Condition Info: Burkholderia cepacia, ATCC25416; B. cepacia ATCC 25416; read-out: MIC (growth inhibition, microdilution method)

Would you please look over these solved cases?
| Compound Structure | Assayed System | MIC |
| --- | --- | --- |
| Cn1nnc(-c2cc(-c3ccc(F)cc3)sc2C(=O)O)n1 | B. cepacia ATCC 25416 | > 16 µg/mL |
| Cn1nnc(-c2cc(C(=O)O)sc2-c2ccc(F)cc2)n1 | B. cepacia ATCC 25416 | ≤ 0.5 µg/mL |
| COC(=O)c1sc(-c2ccc(F)cc2)cc1-c1nnn(C)n1 | B. cepacia ATCC 25416 | > 8 µg/mL |
| CCOC(=O)c1cc(-c2nnn(C)n2)c(-c2ccc(F)cc2)s1 | B. cepacia ATCC 25416 | > 16 µg/mL |
| COC(=O)c1sc(-c2ccc(F)cc2)cc1-c1nnnn1C | B. cepacia ATCC 25416 | > 4 µg/mL |

Input line: With B. cepacia ATCC 25416 as the test system, provide measured MIC for this compound: O=C(O)c1sc(-c2ccc(F)cc2)cc1-c1nnn[nH]1
Output line: > 16 µg/mL

###

# Tested on: C. koseril clinical isolates
# Method Summary: Broth microdilution MIC, clinical isolate strains (NAUTICA)
# Type: cell-based
# Condition Info: Table 4B; each table row is one clinical isolate; unit assumed
Listing of entries alongside the reported MIC, C. KOSERI.

Below, each entry is followed by its recorded MIC, C. KOSERI result.
| Compound Structure | Value Reported |
| --- | --- |
| Fc1ccc(-c2cc(-c3nnn[nH]3)c(-c3ccc(F)cc3)s2)cc1 | > 32 µg/mL |
| Cn1nnc(-c2cc(-c3ccc(F)cc3)sc2C(=O)O)n1 | > 16 µg/mL |
| Cn1nnnc1-c1cc(-c2ccc(F)cc2)sc1-c1ccc(F)cc1 | > 16 µg/mL |

Now consider a different molecule.
Input line: Supply measured MIC, C. KOSERI of Cn1nnc(-c2cc(-c3ccc(F)cc3)sc2-c2ccc(F)cc2)n1 in your reply.
Output line: > 16 µg/mL

###

# Tested on: C. freundii clinical isolates
# Method Summary: Broth microdilution MIC, clinical isolate strains (NAUTICA)
# Format: cell-based
# Condition Info: Table 4B; each table row is one clinical isolate; in µg/mL (unit assumed)
Measurement Label: MIC, C. FREUNDII

| Compound Structure | Assayed System | MIC, C. FREUNDII |
| --- | --- | --- |
| CCOC(=O)c1cc(-c2nnn(C)n2)c(-c2ccc(F)cc2)s1 | C. freundii clinical isolates | >16 |
| Cn1nnnc1-c1cc(-c2ccc(F)cc2)sc1-c1ccc(F)cc1 | C. freundii clinical isolates | >16 |

From here, focus on the item given below.
Input line: # return recorded MIC, C. FREUNDII for input O=C(O)c1sc(-c2ccc(F)cc2)cc1-c1nnn[nH]1
Output line: >16
